Origin of the recorded values: patent US20230049752A1

target: human Claudin-6 (CLDN6) (human) (UniProt P56747); experiment: FACS, limiting dilution, ARK2 cells
Exercise: for every item that follows, state its recorded FACS signal at 200 nM.

stdin: Output FACS signal at 200 nM of AB S4 (antibody, V domains shown) VH: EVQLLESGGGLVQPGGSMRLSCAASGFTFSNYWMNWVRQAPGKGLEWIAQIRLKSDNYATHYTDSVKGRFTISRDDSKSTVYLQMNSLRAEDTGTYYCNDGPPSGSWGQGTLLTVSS VL: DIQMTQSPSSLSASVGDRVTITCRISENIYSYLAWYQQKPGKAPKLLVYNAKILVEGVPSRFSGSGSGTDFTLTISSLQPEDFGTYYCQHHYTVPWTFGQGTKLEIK
stdout: 31500

stdin: Please list FACS signal at 200 nM recorded for the binder AB S5 (antibody, V domains shown) VH: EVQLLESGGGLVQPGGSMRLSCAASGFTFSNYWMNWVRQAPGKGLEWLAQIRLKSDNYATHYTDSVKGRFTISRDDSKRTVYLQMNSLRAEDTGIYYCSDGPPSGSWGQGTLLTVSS VL: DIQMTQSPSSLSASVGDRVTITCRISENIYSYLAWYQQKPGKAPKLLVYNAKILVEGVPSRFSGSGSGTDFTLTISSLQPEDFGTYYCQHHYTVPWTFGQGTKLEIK
stdout: 78800

stdin: Specify reported FACS signal at 200 nM for the binder shown: AB3-7 (antibody, V domains shown, humanized; also called AB23; humanized AB3-7) VH: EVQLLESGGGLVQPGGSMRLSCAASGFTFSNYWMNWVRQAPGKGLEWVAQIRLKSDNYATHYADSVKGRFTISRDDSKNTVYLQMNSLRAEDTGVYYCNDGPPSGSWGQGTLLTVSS VL: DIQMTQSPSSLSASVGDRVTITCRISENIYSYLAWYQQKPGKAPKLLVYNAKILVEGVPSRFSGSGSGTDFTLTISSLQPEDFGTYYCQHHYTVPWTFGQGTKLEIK
stdout: 3060

Query binder follows.
stdin: Supply reported FACS signal at 200 nM belonging to this binder: AB S6 (antibody, V domains shown) VH: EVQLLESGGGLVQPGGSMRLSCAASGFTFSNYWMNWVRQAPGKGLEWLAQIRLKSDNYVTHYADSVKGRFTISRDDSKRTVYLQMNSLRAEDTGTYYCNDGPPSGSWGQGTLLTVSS VL: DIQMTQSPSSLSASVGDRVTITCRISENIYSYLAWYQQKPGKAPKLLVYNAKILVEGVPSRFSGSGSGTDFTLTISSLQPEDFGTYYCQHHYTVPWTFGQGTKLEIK
stdout: 54100
